Hey, just so you know, these numbers are from patent US8772250B2.

measurement protocol: Pharmacokinetic evaluation in humans
Format: in vivo
test settings: human, plasma, 60 mg, compartmental, read-out: Estimated Cmax, Minimum, maximum
measured metric: Cmax

compound="C[C@H](NC(=O)[C@H](CCC(=O)O)NC(=O)CCCC[C@@H]1CCSS1)C(=O)O [RLip-EA-OH, N-(R)-lipoyl-L-glutamyl-L- alanine]" measured_metric=Cmax recorded_result="5520 to 9050 ng/mL"

---

measurement protocol: Pharmacokinetic evaluation in humans
Type: in vivo
test settings: human, plasma, 300 mg, read-out: mean terminal-phase t1/2 (converted)
measured metric: half-life (h)

compound="C[C@H](NC(=O)[C@H](CCC(=O)O)NC(=O)CCCC[C@@H]1CCSS1)C(=O)O [RLip-EA-OH, N-(R)-lipoyl-L-glutamyl-L- alanine]" measured_metric=half-life readout_units=h recorded_result=1.45

---

measurement protocol: Pharmacokinetic evaluation in humans
Format: in vivo
test settings: human, plasma, 150 mg, noncompartmental, read-out: AUC0-t, Minimum, maximum
measured metric: AUC(0-t)

compound="C[C@H](NC(=O)[C@H](CCC(=O)O)NC(=O)CCCC[C@@H]1CCSS1)C(=O)O [RLip-EA-OH, N-(R)-lipoyl-L-glutamyl-L- alanine]" recorded_result="4970 to 9330 ng·h/mL"

---

measurement protocol: Pharmacokinetic evaluation in humans
Assay type: in vivo
test settings: human, plasma and urine, 300 mg, noncompartmental, read-out: Renal clearance, Minimum, maximum
measured metric: CL renal

molecule="C[C@H](NC(=O)[C@H](CCC(=O)O)NC(=O)CCCC[C@@H]1CCSS1)C(=O)O [RLip-EA-OH, N-(R)-lipoyl-L-glutamyl-L- alanine]" recorded_result="85.2 to 200 mL/min"

---

measurement protocol: Pharmacokinetic evaluation in humans
Type: in vivo
test settings: human, plasma, 20 mg, compartmental, read-out: Estimated Cmax, Median
measured metric: Cmax (ng/mL)

molecule="C[C@H](NC(=O)[C@H](CCC(=O)O)NC(=O)CCCC[C@@H]1CCSS1)C(=O)O [RLip-EA-OH, N-(R)-lipoyl-L-glutamyl-L- alanine]" measured_metric=Cmax recorded_result=2480

---

measurement protocol: Pharmacokinetic evaluation in humans
Assay type: in vivo
test settings: human, plasma, 300 mg, compartmental, read-out: t1/2, Minimum, maximum
measured metric: half-life

molecule="C[C@H](NC(=O)[C@H](CCC(=O)O)NC(=O)CCCC[C@@H]1CCSS1)C(=O)O [RLip-EA-OH, N-(R)-lipoyl-L-glutamyl-L- alanine]" recorded_result="1 to 2.5 h"

---

measurement protocol: Pharmacokinetic evaluation in humans
Assay type: in vivo
test settings: human, plasma, 20 mg, compartmental, read-out: t1/2, Minimum, maximum
Procedure: Plasma and urine RLip-EA-OH concentrations were measured at BASi, Inc. (West Lafayette, Ind.) using a LC/MS/MS method with positive turbo ion spray, in the multiple reaction-monitoring mode. The quantifiable range for human plasma was 1.00 to 500 ng/mL and QC samples were included at 3.00, 75.0 and 375 ng/mL. The PK population included subjects who received RLip-EA-OH and had ≧1 post-dose PK measurement. […]
measured metric: half-life

molecule="C[C@H](NC(=O)[C@H](CCC(=O)O)NC(=O)CCCC[C@@H]1CCSS1)C(=O)O [RLip-EA-OH, N-(R)-lipoyl-L-glutamyl-L- alanine]" recorded_result="0.6 to 1.6 h"

---

measurement protocol: Pharmacokinetic evaluation in humans
Format: in vivo
test settings: human, plasma, 150 mg, compartmental, read-out: Estimated Cmax, Mean (SD)
measured metric: Cmax (ng/mL)

compound="C[C@H](NC(=O)[C@H](CCC(=O)O)NC(=O)CCCC[C@@H]1CCSS1)C(=O)O [RLip-EA-OH, N-(R)-lipoyl-L-glutamyl-L- alanine]" readout_units=ng/mL recorded_result=18100

---

measurement protocol: Pharmacokinetic evaluation in humans
Type: in vivo
test settings: human, plasma, 60 mg, compartmental, read-out: Estimated Cmax, Median
Method: Plasma and urine RLip-EA-OH concentrations were measured at BASi, Inc. (West Lafayette, Ind.) using a LC/MS/MS method with positive turbo ion spray, in the multiple reaction-monitoring mode. The quantifiable range for human plasma was 1.00 to 500 ng/mL and QC samples were included at 3.00, 75.0 and 375 ng/mL. The PK population included subjects who received RLip-EA-OH and had ≧1 post-dose PK measurement. […]
measured metric: Cmax (ng/mL)

compound="C[C@H](NC(=O)[C@H](CCC(=O)O)NC(=O)CCCC[C@@H]1CCSS1)C(=O)O [RLip-EA-OH, N-(R)-lipoyl-L-glutamyl-L- alanine]" measured_metric=Cmax recorded_result=6290

---

measurement protocol: Pharmacokinetic evaluation in humans
Assay type: in vivo
test settings: human, plasma, 300 mg, compartmental, read-out: AUCinf, Minimum, maximum
measured metric: AUC(0-inf)

molecule="C[C@H](NC(=O)[C@H](CCC(=O)O)NC(=O)CCCC[C@@H]1CCSS1)C(=O)O [RLip-EA-OH, N-(R)-lipoyl-L-glutamyl-L- alanine]" recorded_result="11500 to 22600 ng·h/mL"

---

measurement protocol: Pharmacokinetic evaluation in humans
Assay type: in vivo
test settings: human, plasma, 60 mg, compartmental, read-out: t1/2, Mean (SD) (converted)
measured metric: half-life (h)

compound="C[C@H](NC(=O)[C@H](CCC(=O)O)NC(=O)CCCC[C@@H]1CCSS1)C(=O)O [RLip-EA-OH, N-(R)-lipoyl-L-glutamyl-L- alanine]" measured_metric=half-life recorded_result=1.5

---

measurement protocol: Pharmacokinetic evaluation in humans
Assay type: in vivo
test settings: human, plasma, 150 mg, compartmental, read-out: CL, Mean (SD) (converted)
measured metric: clearance (mL/min)

compound="C[C@H](NC(=O)[C@H](CCC(=O)O)NC(=O)CCCC[C@@H]1CCSS1)C(=O)O [RLip-EA-OH, N-(R)-lipoyl-L-glutamyl-L- alanine]" recorded_result=370
